# assay.name: Drug concentration in plasma of mouse at 10 mg/kg, po within 1 hr
# Assay type: ADME, organism-based

smiles.text: C/C(=C\CC/C(C)=C/CC[C@]1(C)CCc2c(C)c(O)c(C)c(C)c2O1)CCC=C(CO)CO
concentration at 1 h / nM: 30
